- Test system: HEK293
- method summary: Genotoxicity in HEK293 cells expressing UGT1A3 assessed as DNA strand breaks at 1 mM after 24 hrs by comet assay
- Type: toxicity, cell-based
- measurement setup: human, hek293, 24 h, 1000 µM

{"compound": "CC(C)Cc1ccc(C(C)C(=O)O)cc1 (centres undefined)", "Activity": "Non-toxic"}
{"compound": "CC(C)(Oc1ccc(Cl)cc1)C(=O)O", "Activity": "Toxic"}
{"compound": "COc1ccc2cc([C@H](C)C(=O)O)ccc2c1", "Activity": "Non-toxic"}
{"compound": "CC(C(=O)O)c1cccc(C(=O)c2ccccc2)c1 (centres undefined)", "Activity": "Non-toxic"}
